Test name: recombinant UMI read abundance after kanamycin selection (control-corrected) (log10(CPM+1)); higher = more efficient recombination; extreme values may be limits of the assay; sequences stand for … in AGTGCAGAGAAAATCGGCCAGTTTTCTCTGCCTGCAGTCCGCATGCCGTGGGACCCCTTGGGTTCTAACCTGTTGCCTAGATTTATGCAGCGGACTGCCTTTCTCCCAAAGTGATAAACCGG…AGGTTGGTTTCACT; site = the 11-nt donor

Sequence content	recombinant UMI read abundance (log10)
CAATACCCATGGACCGGTTTTCCCGGTAATCCGTATTTGCT (site CAATACCCTAG)	1.93
GGGGCGCCATGGACCGGTTTTCCCGGTAATCCGTATTTGCA (site GGGGCGCCTTG)	0.0101
CCCCACACATGGACCGGTTTTCCCGGTAATCCGTATTTGTT (site CCCCACACTAA)	0.634
TTACTGACATGGACCGGTTTTCCCGGTAATCCGTATTTGCC (site GGTTATCCTTC)	0.00491
ACCTTAGCATGGACCGGTTTTCCCGGTAATCCGTATTTGGT (site ACCTTAGCTAC)	0.271
ACCTAAGCATGGACCGGTTTTCCCGGTAATCCGTATTTGGC (site ACCTAAGCTGC)	2.22
AGCTCCGCATGGACCGGTTTTCCCGGTAATCCGTATTTGGG (site AGCTCCGCTCC)	0.211
GCTACGTCATGGACCGGTTTTCCCGGTAATCCGTATTTGTT (site GGTACGTCTAA)	0.0111
CGATCAGCATGGACCGGTTTTCCCGGTAATCCGTATTTGCA (site CGATCATCTAG)	0

* * *

Test name: recombinant barcode read abundance after kanamycin selection (control-corrected) (log10(CPM+1)); higher = more efficient recombination; sequences stand for … in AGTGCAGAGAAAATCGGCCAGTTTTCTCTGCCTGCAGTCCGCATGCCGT…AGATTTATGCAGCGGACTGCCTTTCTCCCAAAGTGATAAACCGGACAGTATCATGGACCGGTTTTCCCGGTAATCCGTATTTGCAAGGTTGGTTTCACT; site = the 11-nt target
Outcome: 1.0 for recombinant barcode read abundance (log10) of at least 0.5; 0.0 for anything lower.

Sequence content	Class
GTCGCCACTTGGGTTCTAACCTGTTGCCT (site GTAGCCACTAG)	0.0
AAGACTCCTTGGGTTCTAACCTGTTGCCT (site AAGACTCCTAG)	1.0
GGACGATCTTGGGTTCTAACCTGTTGCCT (site GGACAATCTAG)	0.0
GGGGCTTCTTGGGTTCTAACCTGTTGCCT (site GTGGCTTCTAG)	0.0

* * *

Test name: recombinant barcode read abundance after kanamycin selection (control-corrected) (log10(CPM+1)); higher = more efficient recombination; sequences stand for … in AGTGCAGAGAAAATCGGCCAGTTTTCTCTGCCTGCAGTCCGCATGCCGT…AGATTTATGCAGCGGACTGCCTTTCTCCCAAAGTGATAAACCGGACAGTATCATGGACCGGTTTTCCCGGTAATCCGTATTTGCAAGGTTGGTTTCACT; site = the 11-nt target
Assign yes whenever recombinant barcode read abundance (log10) does not fall below 0.3; assign no whenever it does.

Sequence content	Class
GGTTCTTCTTGGGTTCTAACCTGTTGCCT (site GATTCTTCTAG)	no
TGCCGACCTTGGGTTCTAACCTGTTGCCT (site TGCGGAGCTAG)	no
CGTAGCCCTTGGGTTCTAACCTGTTGCGG (site CGTAGCCCTCC)	yes
GCAGGTCCTTGGGTTCTAACCTGTTGCCT (site GCCGGTCCTAG)	yes
TCCAGTCCTTGGGTTCTAACCTGTTGCTA (site TCCAGTCCTTA)	yes
CGCCTTCCTTGGGTTCTAACCTGTTGCAT (site CGCCATCCTAT)	no
TGACTCTCTTGGGTTCTAACCTGTTGCCT (site TAACTCTCTAG)	no
CAAAGTCCTTGGGTTCTAACCTGTTGCGT (site CAAAGTCCTAC)	yes
GACTATGCTTGGGTTCTAACCTGTTGCCT (site GCCTATGCTAG)	no
CTGGTGTCTTGGGTTCTAACCTGTTGCCT (site CTGGTGTCTAG)	yes

* * *

Overview of reported recombinant barcode read abundance (log10) across a group of sequences:
Test name: recombinant barcode read abundance after kanamycin selection (control-corrected) (log10(CPM+1)); higher = more efficient recombination; sequences stand for … in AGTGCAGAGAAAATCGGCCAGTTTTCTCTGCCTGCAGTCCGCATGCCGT…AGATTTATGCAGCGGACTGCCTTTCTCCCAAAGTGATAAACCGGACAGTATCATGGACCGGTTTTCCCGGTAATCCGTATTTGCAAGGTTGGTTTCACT; site = the 11-nt target
Assay readout: recombinant barcode read abundance (log10)

Sequence content	Endpoint value
GGGGCACCTTGGGTTCTAACCTGTTGCAT (site GGGGCACCTAT)	2.89
GACCGTGCTTGGGTTCTAACCTGTTGCCT (site GACCGTGCTAG)	1.38
CATAGTCCTTGGGTTCTAACCTGTTGCAT (site CATAGGCCTAT)	0.0509
ATAGTCCCTTGGGTTCTAACCTGTTGCCT (site ATGGTCCCTAG)	0.644
AGAAATACTTGGGTTCTAACCTGTTGCCG (site GTCCTACCTTA)	0.0574
GTGGAGTCTTGGGTTCTAACCTGTTGCGT (site GTGGAGTCTAC)	1.49
GCCAACCCTTGGGTTCTAACCTGTTGCCT (site GCCAACCCTAC)	0.0192
AGTAAGACTTGGGTTCTAACCTGTTGCTT (site AGTAAGACTAA)	0.281
GGTTGCCCTTGGGTTCTAACCTGTTGCGG (site GGTTGGCCTCC)	0.0682
GGGTAACCTTGGGTTCTAACCTGTTGCCT (site AGGTAACCTAG)	0
AACCTTACTTGGGTTCTAACCTGTTGCCT (site ACCCTTACTAG)	0.122
CTACGTCCTTGGGTTCTAACCTGTTGCTC (site CTACGTCCTAA)	0.191
ATAGGACCTTGGGTTCTAACCTGTTGCCA (site ATAGGACCTCG)	0.653
CGGGCCACTTGGGTTCTAACCTGTTGCCT (site CGGGCCACTAG)	0.442
CTTCGTCCTTGGGTTCTAACCTGTTGCGT (site CTTCGTCCTAA)	0.102
TCCGAGACTTGGGTTCTAACCTGTTGCCC (site TCCGAGACTAG)	0.146
GTGAAGCCTTGGGTTCTAACCTGTTGCCT (site TTGAAGCCTAG)	0.421
CATGGGCCTTGGGTTCTAACCTGTTGCCT (site CCTGGGCCTAG)	0.0246
CTAAGCTCTTGGGTTCTAACCTGTTGCTT (site CTAAGCTCTGA)	0.0802
GTAAACCCTTGGGTTCTAACCTGTTGCGG (site GTCAACCCTCC)	0.228
TGGTGTACTTGGGTTCTAACCTGTTGCCT (site TGGGGTACTAG)	0.143
CAAAGTCCTTGGGTTCTAACCTGTTGCAT (site CAAAGTCCTAG)	0.59
CTAAGAACTTGGGTTCTAACCTGTTGCGT (site CTAAGAACTAC)	2.1
CTATGGACTTGGGTTCTAACCTGTTGCAT (site CTATGGACTTT)	0.0336
TAACTCTCTTGGGTTCTAACCTGTTGCCT (site TAACTCTCTAG)	1.05
CTAGACTCTTGGGTTCTAACCTGTTGCTT (site CTAGACTCTGA)	0.0758
CTATGGACTTGGGTTCTAACCTGTTGCAT (site CTATGGACTCT)	0.614
GAAAGGGCTTGGGTTCTAACCTGTTGCCT (site GAAAAGGCTAG)	0.183
CCTAGAACTTGGGTTCTAACCTGTTGCCT (site CCTAGATCTAG)	0.0929
ACCCTGTCTTGGGTTCTAACCTGTTGCCG (site ACCCCGTCTAG)	0.0728
CTACAGACTTGGGTTCTAACCTGTTGCGA (site CTACAGACTGC)	0.0716
TATAGCTCTTGGGTTCTAACCTGTTGCCT (site TATAGCTCTAG)	0.479
TATGGAGCTTGGGTTCTAACCTGTTGCTG (site AATGGGGCTCA)	0.523
CGTCAGCCTTGGGTTCTAACCTGTTGCCT (site CGTCATCCTAG)	0.0681
GTGAGGTCTTGGGTTCTAACCTGTTGCCT (site GTGAGGTCTAA)	0.107
TGACTCTCTTGGGTTCTAACCTGTTGCCT (site TTACTCTCTAG)	0.228
GGGTCCTCTTGGGTTCTAACCTGTTGCCT (site GGGTCCTCTCG)	0.776
CTAGAAGCTTGGGTTCTAACCTGTTGCGT (site CTAGGAGCTAC)	1.05
CCTGGGTCTTGGGTTCTAACCTGTTGCTT (site CATGGGTCTAG)	0.0557
GAGTGTACTTGGGTTCTAACCTGTTGCAT (site GAGCGTACTAT)	0.553
CTTGCGACTTGGGTTCTAACCTGTTGCTT (site CTTGCGACTAA)	0.391
AACAGACCTTGGGTTCTAACCTGTTGCCT (site TACAGACCTAG)	0.686
